- System tested: Metabotropic glutamate receptor 5 (Rattus norvegicus, UniProt P31424)
- Sequence (P31424 whole entry): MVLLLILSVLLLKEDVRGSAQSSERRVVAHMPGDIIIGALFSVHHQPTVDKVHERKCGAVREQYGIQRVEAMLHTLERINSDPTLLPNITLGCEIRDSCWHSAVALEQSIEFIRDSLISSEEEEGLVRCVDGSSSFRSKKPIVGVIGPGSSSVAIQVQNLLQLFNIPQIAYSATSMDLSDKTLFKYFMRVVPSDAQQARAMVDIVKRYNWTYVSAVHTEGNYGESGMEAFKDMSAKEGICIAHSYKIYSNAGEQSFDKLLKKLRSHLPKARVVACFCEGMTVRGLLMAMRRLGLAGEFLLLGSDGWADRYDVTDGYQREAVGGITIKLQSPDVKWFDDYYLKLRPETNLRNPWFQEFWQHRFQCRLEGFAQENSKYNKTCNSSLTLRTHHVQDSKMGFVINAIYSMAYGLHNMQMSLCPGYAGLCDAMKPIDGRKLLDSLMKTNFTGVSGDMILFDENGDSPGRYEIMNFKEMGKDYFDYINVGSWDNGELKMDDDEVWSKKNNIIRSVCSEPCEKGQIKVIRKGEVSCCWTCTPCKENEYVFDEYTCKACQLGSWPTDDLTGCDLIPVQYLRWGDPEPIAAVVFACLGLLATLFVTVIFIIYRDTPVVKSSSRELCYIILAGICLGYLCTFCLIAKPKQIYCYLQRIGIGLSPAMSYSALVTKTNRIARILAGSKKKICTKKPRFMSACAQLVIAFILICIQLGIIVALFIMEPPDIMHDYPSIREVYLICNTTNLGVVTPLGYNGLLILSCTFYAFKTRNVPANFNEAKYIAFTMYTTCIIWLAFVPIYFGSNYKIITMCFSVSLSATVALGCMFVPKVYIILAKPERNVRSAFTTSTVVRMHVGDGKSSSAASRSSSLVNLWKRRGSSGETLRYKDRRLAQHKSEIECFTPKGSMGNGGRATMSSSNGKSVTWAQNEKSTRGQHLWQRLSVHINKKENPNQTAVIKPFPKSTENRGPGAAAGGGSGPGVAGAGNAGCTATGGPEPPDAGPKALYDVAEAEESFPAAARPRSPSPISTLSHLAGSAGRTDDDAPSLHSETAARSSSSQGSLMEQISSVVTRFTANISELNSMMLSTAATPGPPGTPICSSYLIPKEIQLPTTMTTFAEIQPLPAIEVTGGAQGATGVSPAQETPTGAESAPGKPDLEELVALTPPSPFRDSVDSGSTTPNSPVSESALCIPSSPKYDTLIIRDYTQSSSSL
- Protocol description: Activity at rat mGlu5 receptor expressed in CHO cells assessed as inhibition of quisqualate-stimulated calcium mobilization by FLIPR assay
Reported metric: log10(IC50) (log10 of the value in nM)

structure_string=Cc1ccc2ccc(-c3ccccc3C#N)cc2n1 system_tested="Metabotropic glutamate receptor 5 (Rattus norvegicus, UniProt P31424)" number=3.99
structure_string=CCOc1cc(C#N)cc(-c2ccc3ccc(C)nc3c2)c1 system_tested="Metabotropic glutamate receptor 5 (Rattus norvegicus, UniProt P31424)" number=1.23
structure_string=Cc1ccc2ccc(-c3ccccc3)cc2n1 system_tested="Metabotropic glutamate receptor 5 (Rattus norvegicus, UniProt P31424)" number=3.95
structure_string=Cc1ccc2ccc(-c3cncc(C#N)c3)cc2n1 system_tested="Metabotropic glutamate receptor 5 (Rattus norvegicus, UniProt P31424)" number=1.36
structure_string=Cc1ccc2ccc(-c3cccc(O)c3)cc2n1 system_tested="Metabotropic glutamate receptor 5 (Rattus norvegicus, UniProt P31424)" number=4.28
structure_string=COc1cccc(-c2ccc3ccc(C)nc3c2)c1 system_tested="Metabotropic glutamate receptor 5 (Rattus norvegicus, UniProt P31424)" number=2.93
structure_string=Cc1ccc2ccc(-c3cc(O)cc(C#N)c3)cc2n1 system_tested="Metabotropic glutamate receptor 5 (Rattus norvegicus, UniProt P31424)" number=2.56
structure_string=CCS(=O)(=O)c1cc(C#N)cc(-c2ccc3ccc(C)nc3c2)c1 system_tested="Metabotropic glutamate receptor 5 (Rattus norvegicus, UniProt P31424)" number=3.04
structure_string=Cc1ccc2ccc(-c3cc(Br)cc(C#N)c3)cc2n1 system_tested="Metabotropic glutamate receptor 5 (Rattus norvegicus, UniProt P31424)" number=1.11
structure_string=CC(=O)c1cccc(-c2ccc3ccc(C)nc3c2)c1 system_tested="Metabotropic glutamate receptor 5 (Rattus norvegicus, UniProt P31424)" number=3.68
structure_string=CCSc1cc(C#N)cc(-c2ccc3ccc(C)nc3c2)c1 system_tested="Metabotropic glutamate receptor 5 (Rattus norvegicus, UniProt P31424)" number=1.86
structure_string=Cc1ccc2ccc(-c3cccc(Cl)c3)cc2n1 system_tested="Metabotropic glutamate receptor 5 (Rattus norvegicus, UniProt P31424)" number=4.15
structure_string=Cc1ccc2ccc(-c3cccc(CC#N)c3)cc2n1 system_tested="Metabotropic glutamate receptor 5 (Rattus norvegicus, UniProt P31424)" number=2.63
structure_string=Cc1ccc2ccc(-c3cc(C#N)cc(OC(F)(F)F)c3)cc2n1 system_tested="Metabotropic glutamate receptor 5 (Rattus norvegicus, UniProt P31424)" number=1.88
structure_string=Cc1ccc2ccc(-c3cc(C#N)cc(OC(C)C)c3)cc2n1 system_tested="Metabotropic glutamate receptor 5 (Rattus norvegicus, UniProt P31424)" number=2.49
structure_string=COc1ccc(-c2ccc3ccc(C)nc3c2)cc1 system_tested="Metabotropic glutamate receptor 5 (Rattus norvegicus, UniProt P31424)" number=4.20

###

- System tested: Metabotropic glutamate receptor 5 (Rattus norvegicus, UniProt P31424)
- Protocol description: Activity at rat mGlu5 receptor expressed in CHO cells assessed as inhibition of quisqualate-stimulated calcium mobilization by FLIPR assay
The following molecules are shown together with reported IC50 values.
Reported metric: IC50 (nM)

structure_string=Cc1ccc2ccc(-c3cccc(C(F)(F)F)c3)cc2n1 censor_symbol=> number=10000
structure_string=Cc1ccc2ccc(-c3cccc(F)c3)cc2n1 censor_symbol== number=1800
structure_string=Cc1ccc2ccc(-c3cccc(C#N)c3)cc2n1 censor_symbol== number=7.7
structure_string=Cc1ccc2ccc(-c3cc(F)cc(C#N)c3)cc2n1 censor_symbol== number=0.8
structure_string=COc1cc(C#N)cc(-c2ccc3ccc(C)nc3c2)c1 censor_symbol== number=2.4
structure_string=Cc1ccc2ccc(-c3cccc(CO)c3)cc2n1 censor_symbol== number=8700
structure_string=Cc1ccc2ccc(-c3cccc(C(N)=O)c3)cc2n1 censor_symbol=> number=10000

###

The following compounds are shown together with reported pIC50 values.
- System tested: Metabotropic glutamate receptor 5 (Rattus norvegicus, UniProt P31424)
- Protocol description: Activity at rat mGlu5 receptor expressed in CHO cells assessed as inhibition of quisqualate-stimulated calcium mobilization by FLIPR assay
pIC50: −log10 of the molar value.
Reported metric: pIC50

structure_string=Cc1ccc2ccc(-c3cccnc3)cc2n1 censor_symbol== number=6.29
structure_string=COCc1cc(C#N)cc(-c2ccc3ccc(C)nc3c2)c1 censor_symbol== number=8.70
structure_string=COCc1cccc(-c2ccc3ccc(C)nc3c2)c1 censor_symbol== number=5.24
structure_string=COc1ccccc1-c1ccc2ccc(C)nc2c1 censor_symbol== number=5.38
structure_string=Cc1cccc(-c2ccc3ccc(C)nc3c2)c1 censor_symbol== number=5.47
structure_string=Cc1ccc2ccc(-c3cc(Cl)cc(C#N)c3)cc2n1 censor_symbol== number=8.85
structure_string=Cc1ccc2ccc(-c3cccc(OC(F)(F)F)c3)cc2n1 censor_symbol=< number=5.00
structure_string=COCCOc1cc(C#N)cc(-c2ccc3ccc(C)nc3c2)c1 censor_symbol== number=7.09
structure_string=Cc1ccc2ccc(-c3cc(C#N)cc(C#N)c3)cc2n1 censor_symbol== number=8.70
structure_string=Cc1ccc2ccc(-c3ccc(C#N)cc3)cc2n1 censor_symbol=< number=5.00
structure_string=Cc1cc(C#N)cc(-c2ccc3ccc(C)nc3c2)c1 censor_symbol== number=8.80
structure_string=Cc1ccc2ccc(-c3cc(C#N)cc(OCC(C)C)c3)cc2n1 censor_symbol== number=4.92
